- target: human class II OR identified in the library screening (Homo sapiens)
- Sequence (Q8NGP4 1-290): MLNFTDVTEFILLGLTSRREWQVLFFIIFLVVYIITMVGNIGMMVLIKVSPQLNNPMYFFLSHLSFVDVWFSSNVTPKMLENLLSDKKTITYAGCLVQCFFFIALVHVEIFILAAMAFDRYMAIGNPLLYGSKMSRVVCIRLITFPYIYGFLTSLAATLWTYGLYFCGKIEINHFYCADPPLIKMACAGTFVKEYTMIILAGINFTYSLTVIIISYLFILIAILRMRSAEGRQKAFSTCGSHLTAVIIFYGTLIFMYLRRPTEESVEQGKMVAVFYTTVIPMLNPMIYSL
- assay protocol: Confirmatory dose-response analysis of library-hit OR with cognate ligand, wild-type vs C-terminal domain SEQ ID NO: 221 (Table 17);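 note: Wild-type receptor sequences expressed from the pcDNA3.1(+) vector and compared with the C-terminally modified receptors in dose-response tests using each receptor's cognate ligand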
- study conditions: read-out: Potency, EC50 changed C-term; OR5M3, modified C-terminus SEQ ID NO: 221 (SEQ ID NO: 559)
reported property: pEC50
For clarity, pEC50 is expressed as the negative log10 of concentration in mol/L.

Q: Which value of pEC50 has been reported for CC1=C(O)C(=O)C(C)O1 (stereo not shown) in the records?
A: 5.06

----------
- target: OR7D4 (Homo sapiens, UniProt Q8NG98, D296E/E302K/G299D)
- Construct: Improved functional expression of modified OR-genes containing the truncated, optimized C-terminus; expressed in transfected cells
- Sequence (Q8NG98 with tags, fused parts or gaps D296E/G299D/E302K): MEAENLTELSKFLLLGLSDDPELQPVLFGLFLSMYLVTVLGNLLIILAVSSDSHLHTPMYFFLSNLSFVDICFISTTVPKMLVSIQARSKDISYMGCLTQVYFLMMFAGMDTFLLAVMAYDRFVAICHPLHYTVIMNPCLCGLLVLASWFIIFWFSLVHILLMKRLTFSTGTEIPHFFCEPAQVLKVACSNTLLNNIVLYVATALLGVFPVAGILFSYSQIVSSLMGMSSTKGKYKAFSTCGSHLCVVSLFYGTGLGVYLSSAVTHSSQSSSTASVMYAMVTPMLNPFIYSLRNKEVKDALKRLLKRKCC
- assay protocol: CRE-luciferase assay, HEK cells expressing OR7D4 (wild-type / modified C-terminus)
- Format: cell-based
- study conditions: OR7D4 variant, Androstenone
Please provide measured EC2 (concentration for 2-fold luciferase induction) for the entries that follow.
Give a bare numeral; the unit µM is implied.

Q: Which value of EC2 (concentration for 2-fold luciferase induction) has been reported for SEQ ID NO: 289 (RNKEIRKALRRLFGKKCC; source 1..18: note = C-terminal domain sequence) in the records?
A: 0.014

Q: Which value of EC2 (concentration for 2-fold luciferase induction) has been reported for SEQ ID NO: 261 (RNRDVRKALRRILRRRCC; source 1..18: note = C-terminal domain sequence) in the records?
A: 0.004

Q: Which value of EC2 (concentration for 2-fold luciferase induction) has been reported for SEQ ID NO: 271 (RNRDLRKAVRKLFKKKCC; source 1..18: note = C-terminal domain sequence) in the records?
A: 0.030

Q: Which value of EC2 (concentration for 2-fold luciferase induction) has been reported for SEQ ID NO: 274 (RNKELKKAIKRILKKKCC; source 1..18: note = C-terminal domain sequence) in the records?
A: 0.095

Q: Which value of EC2 (concentration for 2-fold luciferase induction) has been reported for SEQ ID NO: 290 (RNKDVKKALRRLFGKKCC; source 1..18: note = C-terminal domain sequence) in the records?
A: 0.008

Q: Which value of EC2 (concentration for 2-fold luciferase induction) has been reported for SEQ ID NO: 285 (RNKELKKALRRLIGRRCC; source 1..18: note = C-terminal domain sequence) in the records?
A: 0.042

Q: Which value of EC2 (concentration for 2-fold luciferase induction) has been reported for SEQ ID NO: 254 (RNREMRKALHRLLGKKCC; source 1..18: note = C-terminal domain sequence) in the records?
A: 0.011

Q: Which value of EC2 (concentration for 2-fold luciferase induction) has been reported for SEQ ID NO: 262 (RNKDVRKAVRKLIRRRCC; source 1..18: note = C-terminal domain sequence) in the records?
A: 0.010

Q: Which value of EC2 (concentration for 2-fold luciferase induction) has been reported for SEQ ID NO: 280 (RNREMRKAIKKIIKKKCC; source 1..18: note = C-terminal domain sequence) in the records?
A: 0.009

Q: Which value of EC2 (concentration for 2-fold luciferase induction) has been reported for SEQ ID NO: 301 (RNKEVKKAIRKLFGRRCC; source 1..18: note = C-terminal domain sequence) in the records?
A: 0.013

Q: Which value of EC2 (concentration for 2-fold luciferase induction) has been reported for SEQ ID NO: 265 (RNRELRKAVRRLFKRRCC; source 1..18: note = C-terminal domain sequence) in the records?
A: 0.022

Q: Which value of EC2 (concentration for 2-fold luciferase induction) has been reported for SEQ ID NO: 291 (RNKELKKAIKRLIRRKCC; source 1..18: note = C-terminal domain sequence) in the records?
A: 0.113

Q: Which value of EC2 (concentration for 2-fold luciferase induction) has been reported for SEQ ID NO: 294 (RNRDIRKALRKLFKKKCC; source 1..18: note = C-terminal domain sequence) in the records?
A: 0.008

Q: Which value of EC2 (concentration for 2-fold luciferase induction) has been reported for SEQ ID NO: 284 (RNREMRKALRRLFRKRCC; source 1..18: note = C-terminal domain sequence) in the records?
A: 0.003

Q: Which value of EC2 (concentration for 2-fold luciferase induction) has been reported for SEQ ID NO: 276 (RNRDLRKAVRRIFKKRCC; source 1..18: note = C-terminal domain sequence) in the records?
A: 0.034

Q: Which value of EC2 (concentration for 2-fold luciferase induction) has been reported for SEQ ID NO: 299 (RNRELKKAIRKLLKRKCC; source 1..18: note = C-terminal domain sequence) in the records?
A: 0.093

Q: Which value of EC2 (concentration for 2-fold luciferase induction) has been reported for SEQ ID NO: 267 (RNRDVKKAVRRLFRRKCC; source 1..18: note = C-terminal domain sequence) in the records?
A: 0.006

Q: Which value of EC2 (concentration for 2-fold luciferase induction) has been reported for SEQ ID NO: 298 (RNRDMRKAIRKLFGRKCC; source 1..18: note = C-terminal domain sequence) in the records?
A: 0.011

Q: Which value of EC2 (concentration for 2-fold luciferase induction) has been reported for SEQ ID NO: 296 (RNREVKKALRRLFGKKCC; source 1..18: note = C-terminal domain sequence) in the records?
A: 0.003

Q: Which value of EC2 (concentration for 2-fold luciferase induction) has been reported for SEQ ID NO: 293 (RNKELRKAIRRLLRRRCC; source 1..18: note = C-terminal domain sequence) in the records?
A: 0.068

Q: Which value of EC2 (concentration for 2-fold luciferase induction) has been reported for SEQ ID NO: 303 (RNRDMKKALKKLFRRRCC; source 1..18: note = C-terminal domain sequence) in the records?
A: 0.011

Q: Which value of EC2 (concentration for 2-fold luciferase induction) has been reported for SEQ ID NO: 279 (RNKELKKALRKLIGKKCC; source 1..18: note = C-terminal domain sequence) in the records?
A: 0.098

Q: Which value of EC2 (concentration for 2-fold luciferase induction) has been reported for SEQ ID NO: 263 (RNRDVRKAVRRLFRKRCC; source 1..18: note = C-terminal domain sequence) in the records?
A: 0.006

----------
- target: OR5B12 (Homo sapiens, UniProt Q96R08, C141R)
- Construct: Improved functional expression of modified OR-genes containing the truncated, optimized C-terminus; expressed in transfected cells; host or cells: HEK293T stably expressing human RTP1S(V227I) and RTP2(L220R)
- Sequence (Q96R08 with tags, fused parts or gaps C141R): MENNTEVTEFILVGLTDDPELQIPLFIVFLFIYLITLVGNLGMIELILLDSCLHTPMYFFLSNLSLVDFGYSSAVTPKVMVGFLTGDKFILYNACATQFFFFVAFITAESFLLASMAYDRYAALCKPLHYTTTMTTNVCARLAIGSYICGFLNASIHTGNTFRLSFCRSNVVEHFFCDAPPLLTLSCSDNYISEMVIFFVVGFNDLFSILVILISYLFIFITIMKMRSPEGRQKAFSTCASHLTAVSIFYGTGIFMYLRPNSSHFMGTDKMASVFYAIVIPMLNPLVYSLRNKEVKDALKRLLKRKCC
- assay protocol: CRE-luciferase assay, HEK293T cells expressing OR5B12 (wild-type / modified C-terminus)
- Type: cell-based
- study conditions: OR5B12 variant, 62.5 μM Hedione HC
Please provide measured % of the activation by the optimized sequence RNKEVKDALKRLLKRKCC for the entries that follow.
Give a bare numeral; the unit % is implied.

Q: Which value of % of the activation by the optimized sequence RNKEVKDALKRLLKRKCC has been reported for SEQ ID NO: 220 (RNKEVKKAIKRLLKRKCCRRR; source 1..21: note = C-terminal domain sequence) in the records?
A: 922.2

Q: Which value of % of the activation by the optimized sequence RNKEVKDALKRLLKRKCC has been reported for SEQ ID NO: 141 (RNKEVKDALKRLLKRKCCY; source 1..19: note = C-terminal domain sequence) in the records?
A: 274.09

Q: Which value of % of the activation by the optimized sequence RNKEVKDALKRLLKRKCC has been reported for SEQ ID NO: 140 (RNKEVKDALKRLLKRKCCA; source 1..19: note = C-terminal domain sequence) in the records?
A: 143.71

Q: Which value of % of the activation by the optimized sequence RNKEVKDALKRLLKRKCC has been reported for SEQ ID NO: 147 (RNKEVKDALKRLLKRKCCG; source 1..19: note = C-terminal domain sequence) in the records?
A: 300.08
